Test system: barley powdery mildew fungus (Erysiphe graminis)
measurementDescription: Test Example 2: control effect against barley powdery mildew by foliage application
Format: in vivo
measurementSetup: wettable powder diluted to 100 ppm, 10 mL per pot foliage spray on barley; inoculated day after; 7 days after inoculation
outcomeMeasure: evaluation value of control effect (from control value, lesion area percentage)

compound	subjectOfTest	assayResult
Cc1nc(C(F)F)c(C(=O)N(C(=O)c2cccnc2C(F)F)c2ccccc2C(C)CC(C)C)s1 (stereo not drawn) [7-270]	barley powdery mildew fungus (Erysiphe graminis)	4
Cc1nc(C(F)F)c(C(=O)N(C(=O)c2scnc2C(F)F)c2cccc3c2C(C)CC3(C)C)s1 (stereo not drawn) [26-85]	barley powdery mildew fungus (Erysiphe graminis)	5
Cc1nsc(C(=O)N(C(=O)c2cn(C)nc2C(F)F)c2ccccc2C(C)CC(C)C)c1Cl (stereo not drawn) [1-140]	barley powdery mildew fungus (Erysiphe graminis)	5
